Listed below: melting point values for each entry.

# annotated cases, reported melting point shown
Cn1nc(C(F)F)c(CS(=O)(=O)C2=NOC(C)(C)C2)c1Cl | 78 to 79 °C
Cn1nc(C(F)(F)F)c(CS(=O)(=O)C2=NOC(C)(C)C2)c1OC1CCCC1 | 113 to 114 °C
CC1(C)CC(S(=O)(=O)Cc2c(Cl)nn(C(F)F)c2C(F)(F)F)=NO1 | 136 to 137 °C
CC1(C)CC(S(=O)(=O)Cc2c(C(F)(F)F)nn(-c3ccccc3)c2Cl)=NO1 | 132 to 133 °C
CC1(C)CC(SCc2c(C(F)(F)F)nn(C(C)(C)C)c2Cl)=NO1 | 79 to 81 °C

Query: Quick check: melting point of CCS(=O)(=O)c1c(CS(=O)(=O)C2=NOC(C)(C)C2)c(C(F)(F)F)nn1-c1ccccc1 ?
Response: 158 to 160 °C

Query: Quick check: melting point of COc1c(CS(=O)(=O)C2=NOC(C)(C)C2)c(C(F)(F)F)nn1C ?
Response: 113 to 114 °C

Query: Quick check: melting point of CC1(C)CC(SCc2c(Cl)nn(C(F)F)c2C(F)(F)F)=NO1 ?
Response: 89 to 90 °C

Query: Quick check: melting point of CC1(C)CC(SCc2c(C(F)(F)F)nn(-c3ccccc3)c2Cl)=NO1 ?
Response: 89 to 90 °C

Query: Quick check: melting point of CC1(C)CC(SCc2c(C(F)(F)F)nn(C(F)F)c2Cl)=NO1 ?
Response: 41 to 42 °C

Query: Quick check: melting point of Cn1nc(C(F)(F)F)c(CS(=O)(=O)C2=NOC(C)(C)C2)c1Oc1ccccc1Cl ?
Response: 67 to 70 °C

====

Listed below: melting point values for each entry.

# annotated cases, reported melting point shown
CCOc1nn(C)c(C(F)(F)F)c1CS(=O)(=O)C1=NOC(C)(C)C1 | 124 to 125 °C
CN(C)c1c(CS(=O)(=O)C2=NOC(C)(C)C2)c(C(F)(F)F)nn1-c1ccccc1 | 150 to 151 °C

Query: Quick check: melting point of CON=C(C)c1c(C)sc(C)c1CS(=O)(=O)C1=NOC(C)(C)C1 ?
Response: 95 to 96 °C

Query: Quick check: melting point of Cn1nc(C(F)(F)F)c(CS(=O)(=O)C2=NOC(C)(C)C2)c1C#N ?
Response: 105 to 108 °C

Query: Quick check: melting point of CC1(C)CC(SCc2c(C(F)(F)F)n[nH]c2Cl)=NO1 ?
Response: 120 to 122 °C

====

Listed below: melting point values for each entry.

# annotated cases, reported melting point shown
CC1(C)CC(S(=O)(=O)Cc2c(C(F)(F)F)nn(C(F)F)c2Cl)=NO1 [3-0010] | 126 to 127 °C
CC1(C)CC(S(=O)(=O)Cc2c(C(F)(F)F)nn3c2OCCC3)=NO1 [3-0019] | 151 to 152 °C
CCn1nc(Cl)c(CS(=O)(=O)C2=NOC(C)(C)C2)c1Cl [3-0017] | 105 to 107 °C

Now take the following compound into account.
Query: Quick check: melting point of CC1(C)CC(S(=O)(=O)Cc2cnccc2C(F)(F)F)=NO1 [7-0001] ?
Response: 77 to 80 °C
